Measured AC50 by item
assay: HIV-1 AD8 envelope cell-cell fusion blockers – cherry-pick, dose response (AID 652062); assay type: functional, cell-based;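 further: luciferase signal from cell-cell fusion driven by HIV-1 clade B AD8 Env; potency is for inhibitors of fusion seen as a drop in luminescence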
Active and inactive are the calls of the source.
PROPERTY LABEL: AC50

>>> df
                                   compound     readout_value
0  Cn1c(CN2CCCCC2)nc2cc(NC(=O)c3ccc(Cl)cc3)ccc21  28.7 µM (active)
1  CN(C)c1ncnc2c1ccn2C1OC(CO)C(O)C1O (centres undefined)  1.89 µM (active)
2  COc1ccc2c(c1)[C@H]1[C@H](CO2)[C@H](c2ccccc2)[C@]2(C)C(=O)Nc3cc(OC)c(OC)cc3C(=O)N12  27.3 µM (active)
3  CCOc1ccc(NS(=O)(=O)c2ccc(C(=O)N(C)CCc3ccc(OC)c(OC)c3)cc2)cc1  5.92 µM (active)

====

molecular target: Streptokinase A (Streptococcus pyogenes serotype M1); assay: viability-normalized secreted streptokinase activity reduction – plasminogen activation absorbance, OD405, dose response (AID 1914); type: functional, Streptococcus pyogenes M1 GAS;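 further: secreted streptokinase activity via plasminogen activation per viability signal from cell pellet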
Sequence (P10520 whole entry): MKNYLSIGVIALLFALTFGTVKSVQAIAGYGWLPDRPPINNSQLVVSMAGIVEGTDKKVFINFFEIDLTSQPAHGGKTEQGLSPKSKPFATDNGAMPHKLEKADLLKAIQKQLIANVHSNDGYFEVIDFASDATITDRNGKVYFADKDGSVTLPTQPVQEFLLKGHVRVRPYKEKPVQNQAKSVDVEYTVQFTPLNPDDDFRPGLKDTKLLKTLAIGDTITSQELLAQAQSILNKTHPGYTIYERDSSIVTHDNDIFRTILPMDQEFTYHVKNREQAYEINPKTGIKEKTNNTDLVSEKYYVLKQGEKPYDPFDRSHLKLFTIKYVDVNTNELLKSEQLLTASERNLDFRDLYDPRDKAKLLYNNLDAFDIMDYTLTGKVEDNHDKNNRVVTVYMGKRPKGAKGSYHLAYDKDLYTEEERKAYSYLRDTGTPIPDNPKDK
Activity calls are given as the source filed them.
Quick reference: EC50 of the listed items.
PROPERTY LABEL: EC50

>>> print(df.to_string())
                                   compound          readout_value
0  COC(=O)c1c(NC(=O)c2ccccc2)sc(C(=O)c2ccccc2)c1C  > 150 µM (not active)
1            CCOC(=O)c1[n-]c2ccccc2c1[N+]#N  > 150 µM (not active)
2    COc1ccc2nc(Nc3nc4cc5c(cc4s3)OCO5)sc2c1  > 150 µM (not active)
3  O=C(NC(=S)N1CCN(c2nc(-c3ccccc3)cs2)CC1)c1cccnc1  > 150 µM (not active)
4  CCCOc1ccc(/C=C/c2c([N+](=O)[O-])c(=O)n(C)c(=O)n2C)cc1  > 150 µM (not active)
5   CC1(C)c2ccccc2-n2c1cc1oc(=O)cc(O)c1c2=O  > 150 µM (not active)
6  CC(C)=CCc1c(-c2ccc(O)cc2O)oc2c3c(cc(O)c2c1=O)OC(C)(C)C=C3       1.15 µM (active)
7  O=C(Nc1ccccc1)Nc1cc(OCC(F)(F)F)cc(OCC(F)(F)F)c1       18.1 µM (active)
8  COc1ccc(C2CC(=O)c3cnc(N4CCN(Cc5ccccc5)CC4)nc3C2)cc1 (centres undefined)  > 150 µM (not active)

====

Overview of reported IC50 across a group of compounds:
target: Fatty acid synthase (Homo sapiens, UniProt P49327); assay: inhibition of human FAS-TE enzyme activity – biochemical, kinetic fluorescence intensity, dose response (AID 624326); type: functional;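 further: rate of fluorescence rise from hydrolysis of a fluorogenic O-methyl fluorescein ester substrate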
Sequence (P49327 whole entry): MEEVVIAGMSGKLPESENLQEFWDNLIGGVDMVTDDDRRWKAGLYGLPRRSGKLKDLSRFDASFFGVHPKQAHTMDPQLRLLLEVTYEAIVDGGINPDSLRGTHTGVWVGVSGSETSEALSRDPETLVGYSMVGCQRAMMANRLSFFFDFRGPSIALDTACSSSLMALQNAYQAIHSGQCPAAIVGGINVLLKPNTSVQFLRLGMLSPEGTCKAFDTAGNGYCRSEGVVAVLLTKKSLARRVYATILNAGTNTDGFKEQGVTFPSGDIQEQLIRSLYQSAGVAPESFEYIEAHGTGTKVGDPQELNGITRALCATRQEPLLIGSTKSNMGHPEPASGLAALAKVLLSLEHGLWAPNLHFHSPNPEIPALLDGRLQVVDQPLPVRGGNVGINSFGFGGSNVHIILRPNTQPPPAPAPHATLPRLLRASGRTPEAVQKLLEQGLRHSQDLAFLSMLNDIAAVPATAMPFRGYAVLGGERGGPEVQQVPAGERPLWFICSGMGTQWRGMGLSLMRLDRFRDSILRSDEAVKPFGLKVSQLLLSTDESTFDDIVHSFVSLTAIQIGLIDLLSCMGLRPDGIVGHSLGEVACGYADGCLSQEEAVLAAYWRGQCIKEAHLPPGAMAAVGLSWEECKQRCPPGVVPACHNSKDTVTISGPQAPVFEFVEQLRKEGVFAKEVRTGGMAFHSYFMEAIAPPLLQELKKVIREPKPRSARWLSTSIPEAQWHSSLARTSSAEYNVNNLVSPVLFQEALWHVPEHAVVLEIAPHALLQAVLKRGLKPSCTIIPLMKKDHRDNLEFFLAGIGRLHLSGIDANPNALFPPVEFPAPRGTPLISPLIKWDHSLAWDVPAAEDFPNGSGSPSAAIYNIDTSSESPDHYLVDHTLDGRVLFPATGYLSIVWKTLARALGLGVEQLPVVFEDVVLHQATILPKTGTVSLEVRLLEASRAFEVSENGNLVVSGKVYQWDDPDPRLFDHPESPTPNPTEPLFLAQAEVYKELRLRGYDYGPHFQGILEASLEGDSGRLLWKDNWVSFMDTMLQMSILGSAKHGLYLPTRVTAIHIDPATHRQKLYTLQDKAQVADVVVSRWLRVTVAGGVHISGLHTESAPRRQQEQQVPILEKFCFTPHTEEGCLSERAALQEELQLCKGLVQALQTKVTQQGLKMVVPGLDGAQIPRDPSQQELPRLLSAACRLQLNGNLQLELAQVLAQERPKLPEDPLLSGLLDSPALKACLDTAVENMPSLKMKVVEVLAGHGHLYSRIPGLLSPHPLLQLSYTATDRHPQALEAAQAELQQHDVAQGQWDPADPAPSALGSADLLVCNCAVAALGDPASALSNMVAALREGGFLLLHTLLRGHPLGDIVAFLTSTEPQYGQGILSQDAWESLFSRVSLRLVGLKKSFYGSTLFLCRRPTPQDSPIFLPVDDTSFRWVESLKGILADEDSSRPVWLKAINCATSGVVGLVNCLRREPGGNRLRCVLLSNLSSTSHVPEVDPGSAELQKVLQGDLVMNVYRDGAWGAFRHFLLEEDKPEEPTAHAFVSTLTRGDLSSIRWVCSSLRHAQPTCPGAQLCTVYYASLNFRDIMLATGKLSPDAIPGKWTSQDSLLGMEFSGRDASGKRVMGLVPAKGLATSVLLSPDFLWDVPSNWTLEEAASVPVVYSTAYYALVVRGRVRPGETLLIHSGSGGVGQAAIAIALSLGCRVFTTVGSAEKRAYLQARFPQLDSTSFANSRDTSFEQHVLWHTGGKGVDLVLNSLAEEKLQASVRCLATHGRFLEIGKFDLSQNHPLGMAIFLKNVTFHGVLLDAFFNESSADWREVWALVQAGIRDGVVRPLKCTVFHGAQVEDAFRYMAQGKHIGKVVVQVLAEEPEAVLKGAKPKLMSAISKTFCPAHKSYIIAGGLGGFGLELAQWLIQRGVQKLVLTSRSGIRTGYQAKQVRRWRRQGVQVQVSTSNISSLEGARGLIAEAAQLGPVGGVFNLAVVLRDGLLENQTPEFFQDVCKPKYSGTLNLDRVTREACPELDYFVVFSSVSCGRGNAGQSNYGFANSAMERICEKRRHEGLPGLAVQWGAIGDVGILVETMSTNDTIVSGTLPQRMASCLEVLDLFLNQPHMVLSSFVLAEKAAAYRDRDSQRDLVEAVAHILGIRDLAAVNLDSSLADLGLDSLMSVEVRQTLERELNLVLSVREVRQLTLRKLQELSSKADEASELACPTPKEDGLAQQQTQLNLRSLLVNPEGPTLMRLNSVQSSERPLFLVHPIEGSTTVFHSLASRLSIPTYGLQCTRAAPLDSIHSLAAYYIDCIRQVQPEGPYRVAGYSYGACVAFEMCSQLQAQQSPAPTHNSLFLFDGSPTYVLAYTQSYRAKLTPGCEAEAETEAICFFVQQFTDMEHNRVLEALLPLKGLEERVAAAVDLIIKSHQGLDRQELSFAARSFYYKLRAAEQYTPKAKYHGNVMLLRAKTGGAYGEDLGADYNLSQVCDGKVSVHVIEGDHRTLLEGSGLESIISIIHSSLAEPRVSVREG
Activity calls are given as the source filed them.
PROPERTY LABEL: IC50

>>> df
                                   compound                         system_under_test      readout_value
0  Cc1ccc([N+](=O)[O-])cc1S(=O)(=O)NCC1COc2ccccc2O1 (stereo not given)  Fatty acid synthase (Homo sapiens, UniProt P49327)   4.43 µM (active)
1  COCc1cc(C)nc(SCC[N+](C)(C)CC(=O)Nc2ccccc2)c1C#N  Fatty acid synthase (Homo sapiens, UniProt P49327)   12.4 µM (active)
2  Cc1nc2ccc([N+](=O)[O-])cc2c(=O)n1Cc1ccc(Br)cc1  Fatty acid synthase (Homo sapiens, UniProt P49327)  0.719 µM (active)
3     COc1cc2c(C)nc3onc(-c4ccccc4)c3c2cc1OC  Fatty acid synthase (Homo sapiens, UniProt P49327)   19.4 µM (active)
4  Cc1ccccc1Cn1c(C)nc2ccc([N+](=O)[O-])cc2c1=O  Fatty acid synthase (Homo sapiens, UniProt P49327)   7.08 µM (active)
